Assign Experimental competition (ΔΔG on mutation of the residue to alanine) to each entry below.
# subject of test: SUMO-1 (Homo sapiens)
# Construct: The pet19b His-TEV-SUMO-1 (18-97) construct was over-expressed; His-TEV (N, cleaved yes); made in house; host or cells: E. coli Rosetta 2
# Sequence (P63165 18-97, species assumed): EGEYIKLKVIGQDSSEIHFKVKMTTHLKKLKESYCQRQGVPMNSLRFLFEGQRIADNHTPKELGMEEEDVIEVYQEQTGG
# Assay type: binding
Where a SMILES comes first, the peptide text is derived from it. The star is where a group is joined. 5FAM = O=C1OC2(c3ccc(O)cc3Oc3cc(O)ccc32)c2ccc(C(=O)*)cc21; AEEA = NCCOCCOCC(=O)O

Item: CC[C@H](C)[C@H](NC(=O)[C@H](C)NC(=O)[C@H](CCC(=O)O)NC(=O)[C@@H](NC(=O)[C@H](CCC(=O)O)NC(=O)[C@H](CC(N)=O)NC(=O)[C@H](CC(=O)O)NC(=O)COCCOCCNC(=O)c1ccc2c(c1)C(=O)OC21c2ccc(O)cc2Oc2cc(O)ccc21)[C@@H](C)CC)C(=O)N[C@H](C(=O)N[C@H](C(=O)N[C@@H](Cc1c[nH]c2ccccc12)C(=O)N[C@@H](CCC(=O)O)C(=O)N[C@@H](CCCCN)C(=O)N[C@@H](CCCCN)C(N)=O)C(C)C)[C@@H](C)CC [FAM-V2710A SIM] ({5FAM-AEEA}-DNEIEAIIVWEKK-NH2) | Experimental competition (ΔΔG on mutation of the residue to alanine): 4.7

Short answer for CC[C@H](C)[C@H](NC(=O)[C@H](CCC(=O)O)NC(=O)[C@H](CC(N)=O)NC(=O)[C@H](CC(=O)O)NC(=O)COCCOCCNC(=O)c1ccc2c(c1)C(=O)OC21c2ccc(O)cc2Oc2cc(O)ccc21)C(=O)N[C@@H](CCC(=O)O)C(=O)N[C@H](C(=O)N[C@H](C(=O)N[C@H](C(=O)N[C@H](C(=O)N[C@@H](C)C(=O)N[C@@H](CCC(=O)O)C(=O)N[C@@H](CCCCN)C(=O)N[C@@H](CCCCN)C(N)=O)C(C)C)[C@@H](C)CC)[C@@H](C)CC)C(C)C [FAM-W2714A SIM] ({5FAM-AEEA}-DNEIEVIIVAEKK-NH2) : Experimental competition (ΔΔG on mutation of the residue to alanine) was 8.1
